- MEASUREMENT TARGET: T1, huCD33-G69-Fc recombinant protein (human, UniProt P20138 18-259);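 also: biolayer interferometry: scFvs captured from periplasmic extracts on anti-V5-loaded streptavidin biosensors, antigen association for 2 min, buffer dissociation for 5 min, 1:1 Langmuir fit giving off-rate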
- T1 construct: extracellular domain; also called CD33 R69G
- T1 sequence (P20138 18-259 R69G): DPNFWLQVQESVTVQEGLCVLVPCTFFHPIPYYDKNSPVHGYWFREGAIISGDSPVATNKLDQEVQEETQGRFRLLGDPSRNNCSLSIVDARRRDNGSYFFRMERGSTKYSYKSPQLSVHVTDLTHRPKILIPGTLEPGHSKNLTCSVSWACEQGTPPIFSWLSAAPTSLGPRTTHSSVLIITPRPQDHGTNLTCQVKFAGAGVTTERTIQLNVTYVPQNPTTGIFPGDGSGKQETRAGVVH
- PROCEDURE DETAILS: BLI

BINDER	binding result
Polypeptide No. 140 (scFv, V domains shown, scFv) VH: EVQLVESGGGLVKPGGSLRLSCAASGITVSSSWMHWVRQAPGKGLEWVSAIGTGGGTHYADSVKGRFTISRDDSKNTLYLQMNSLKTEDTAVYYCARDQGGQIDHWGQGTLVTVSS VL: DIQMTQSPSSLSASVGDRVTITCRASQSISSWLAWYQQKPGKAPKLLIYDASTLQSGVPSRFSGSGSGTDFTLTISSLQPEDFATYYCQQSYSIPLTFGGGTKVEIKR	binds
Polypeptide No. 93 (scFv, V domains shown, scFv) VH: QVQLVQSGAEVKKPGASVKVSCKASGYSFTNYDISWVRQAPGQGLEWMGWVNPNSGNTGYAQKFQGRVTMTRDTSTSTVYMELSSLRSEDTAVYYCAKDAPYYYDSSGYYGVFDYWGQGTLVTVSS VL: DIVMTQSPLSLPVTPGEPASISCRSSQSLLHSNGYNYLDWYLQKPGQSPQLLIYAASSLQSGVPDRFSGSGSGTDFTLKISRVEAEDVGVYYCMQALQTPLTFGQGTRLEIKR	binds
Polypeptide No. 133 (scFv, V domains shown, scFv) VH: EVQLLESGGGLVQPGGSLRLSCAASGFTFSSSWMHWVRQAPGKGLEWVSAISSSGDATYYADSVKGRFTISRDNSKNTLYLQMNSLRAEDTAVYYCAKFSDGGAGDSDYWGQGTLVTVSS VL: DIQMTQSPSSLSASVGDRVTITCRASQGISSYLAWYQQKPGKAPKLLIYTASSLQSGVPSRFSGSGSGTDFTLTISSLQPEDFATYYCQQYDNLPITFGQGTRLEIKR	binds

Values compiled from patent US20240101668A1.
